Test system: 873145-292-R-J1-PDC complex spheroid viability
assayText: Anticancer human tumor 873145-292-R-J1-PDC patient-derived renal clear cell carcinoma cell line growth inhibition [POLQ]
runParameters: second compound 0.0316 µM; first compound 0.1 µM; hits give low values
Known viability, T/C of a selection of compounds
Just the number in %, nothing appended.

Below are worked cases with known answers.
### Prompt Query viability, T/C on 873145-292-R-J1-PDC complex spheroid viability for CNCc1ccc(-c2[nH]c3cc(F)cc4c3c2CCNC4=O)cc1 + COC1C(OC(N)=O)C(O)C(Oc2ccc3c(O)c(NC(=O)c4ccc(O)c(CC=C(C)C)c4)c(=O)oc3c2C)OC1(C)C
### Response 96.8

### Prompt Another: COc1cccc(OCCCN)c1-c1cc(Nc2cnc(C#N)cn2)n[nH]1 + Cc1cccc(N(C)C(=O)C2C(O)CCN2c2nc(C)cc(C(F)(F)F)c2C#N)c1
### Response 69.7

Kindly review the next compound as well.
### Prompt Could you share what viability, T/C was measured for CC(C)n1c(=O)n(C)c2cnc3cc(F)c(-c4ccc(OCCCN5CCCCC5)nc4)cc3c21 + Cc1cccc(N(C)C(=O)C2C(O)CCN2c2nc(C)cc(C(F)(F)F)c2C#N)c1 , tested on 873145-292-R-J1-PDC complex spheroid viability?
### Response 102

###

viability, T/C overview
Tested on: 873145-292-R-J1-PDC complex spheroid viability
assayText: Anticancer human tumor 873145-292-R-J1-PDC cell line growth inhibition [POLQ];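 note: luminescence signal used as surrogate for viable cell content; spheroids exposed to compounds for 7 days before viability readout; 100% = DMSO vehicle control viability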
runParameters: second compound 3.16 µM; first compound 3.16 µM; hits give low values
Reply with just the number (in %).

### Prompt Form entry - test system: 873145-292-R-J1-PDC complex spheroid viability; read-out: viability, T/C; molecule: O=C(Nc1ccc(O)c(NS(=O)(=O)c2ccc(F)cc2)c1)c1ccc(-c2ccccc2)cc1 + Cc1cccc(N(C)C(=O)C2C(O)CCN2c2nc(C)cc(C(F)(F)F)c2C#N)c1
### Response 99.3

### Prompt What do you get for COc1cc(C2c3cc4c(cc3C(OC3OC5COC(C)OC5C(O)C3O)C3COC(=O)C23)OCO4)cc(OC)c1O (stereo not given) + COC1C(OC(N)=O)C(O)C(Oc2ccc3c(O)c(NC(=O)c4ccc(O)c(CC=C(C)C)c4)c(=O)oc3c2C)OC1(C)C ?
### Response 70.9

### Prompt // query: O=C(c1cc(Cc2n[nH]c(=O)c3ccccc23)ccc1F)N1CCN(C(=O)C2CC2)CC1 + Cc1cccc(N(C)C(=O)C2C(O)CCN2c2nc(C)cc(C(F)(F)F)c2C#N)c1
### Response 96.8

### Prompt CC1COCCN1c1cc(-c2ccnn2C)c2ccnc(-c3ccn[nH]3)c2n1 (stereo not given) + Nc1ccc(C#CCN(C(=O)Cc2ncc(C(F)(F)F)cc2C(F)(F)F)c2ccc(F)cc2)nn1 , same question.
### Response 49.3

Further cases:
### Prompt Enter reported viability, T/C observed with 873145-292-R-J1-PDC complex spheroid viability for CCCS(=O)(=O)Nc1ccc(F)c(C(=O)c2c[nH]c3ncc(-c4ccc(Cl)cc4)cc23)c1F + Cc1cccc(N(C)C(=O)C2C(O)CCN2c2nc(C)cc(C(F)(F)F)c2C#N)c1
### Response 105

###

Tested on: 873145-292-R-J1-PDC complex spheroid viability
assayText: Anticancer human tumor 873145-292-R-J1-PDC cell line growth inhibition [POLQ];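 note: luminescence signal used as surrogate for viable cell content; spheroids exposed to compounds for 7 days before viability readout; 100% = DMSO vehicle control viability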
runParameters: second compound 10 µM; first compound 1 µM; hits give low values
measure: viability, T/C (%)
Give the value in % but do not write % after it.

### Prompt # get_value(readout='viability, T/C', item= C=CC(=O)N1CCN(c2nc(=O)n(-c3c(C)ccnc3C(C)C)c3nc(-c4c(O)cccc4F)c(F)cc23)C(C)C1 (stereo not given) + Cc1cccc(N(C)C(=O)C2C(O)CCN2c2nc(C)cc(C(F)(F)F)c2C#N)c1 )
### Response 111

### Prompt Proceed to O=C(c1cc(Cc2n[nH]c(=O)c3ccccc23)ccc1F)N1CCN(C(=O)C2CC2)CC1 + COC1C(OC(N)=O)C(O)C(Oc2ccc3c(O)c(NC(=O)c4ccc(O)c(CC=C(C)C)c4)c(=O)oc3c2C)OC1(C)C
### Response 92.2

### Prompt Consider next the compound COc1cccc2c1C(=O)c1c(O)c3c(c(O)c1C2=O)CC(O)(C(=O)CO)CC3OC1CC(N)C(O)C(C)O1 (stereo not given) + Nc1ccc(C#CCN(C(=O)Cc2ncc(C(F)(F)F)cc2C(F)(F)F)c2ccc(F)cc2)nn1 in the same way.
### Response 42.9

### Prompt Could you do the same for COc1cccc2c1C(=O)c1c(O)c3c(c(O)c1C2=O)CC(O)(C(=O)CO)CC3OC1CC(N)C(O)C(C)O1 (stereo not given) + Cc1cccc(N(C)C(=O)C2C(O)CCN2c2nc(C)cc(C(F)(F)F)c2C#N)c1 , please?
### Response 30.8

---
### Prompt So what does the record say about viability, T/C for Nc1ccn(C2OC(CO)C(O)C2(F)F)c(=O)n1 (stereo not given) + COC1C(OC(N)=O)C(O)C(Oc2ccc3c(O)c(NC(=O)c4ccc(O)c(CC=C(C)C)c4)c(=O)oc3c2C)OC1(C)C ?
### Response 45.6
